molecular target: Muscarinic acetylcholine receptor M1 (Rattus norvegicus) (UniProt P08482); assay: antagonists of rat M1 muscarinic receptor (AID 628); settings: CHO-M1 cells, Fluo-4 calcium, ACh EC80 antagonist mode; at 10 µM; active compounds read low
Sequence (P08482 whole entry, looked up): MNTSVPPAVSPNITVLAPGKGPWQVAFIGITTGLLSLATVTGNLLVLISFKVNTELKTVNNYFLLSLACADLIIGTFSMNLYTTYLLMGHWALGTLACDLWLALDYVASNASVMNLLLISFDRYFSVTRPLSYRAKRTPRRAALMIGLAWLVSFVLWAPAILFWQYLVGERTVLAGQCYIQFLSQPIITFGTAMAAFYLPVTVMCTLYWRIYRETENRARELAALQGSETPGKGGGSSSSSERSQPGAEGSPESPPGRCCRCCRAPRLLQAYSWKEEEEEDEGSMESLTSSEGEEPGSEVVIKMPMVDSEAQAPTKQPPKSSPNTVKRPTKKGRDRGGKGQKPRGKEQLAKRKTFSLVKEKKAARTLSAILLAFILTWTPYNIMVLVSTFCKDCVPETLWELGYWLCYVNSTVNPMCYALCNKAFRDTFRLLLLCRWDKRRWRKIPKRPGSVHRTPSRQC
Hit rate of the full screen: of about 64,000 compounds, about 2,200 (3.4%) were called active. Shown is part of a subset that was picked to be rich in actives.
Measured parameter: B-score
Write the number on its own, no unit after it.

Example entries and their recorded answers appear below.
> print(dat)
                                   compound  numeric.result
1  COc1ccc(C2C(C(=O)Nc3ccccc3OC)=C(C)Nc3nnnn32)c(OC)c1 (stereo not drawn)        -0.00786
2  Cn1c(SCc2nc3ccccc3s2)nnc1-c1ccc2c(c1)OCO2          0.0691
3   CCn1c(=N)n(CC(=O)c2cccc(OC)c2)c2ccccc21           -6.64
4  O=C(c1cccc(S(=O)(=O)N2CCOCC2)c1)N1CCOCC1           0.238
5  Cn1c(=O)[nH]c(=O)c2c1nc(CN1CCN(c3ccccc3F)CC1)n2CCc1ccccc1         -0.0585
6  COc1ccc(OC)c(NC(=O)Cn2c(=O)oc3ccccc32)c1          -0.343
7  Cc1c(C(=O)OCC(=O)N(CCC#N)c2ccccc2)oc2c1ccc1ccccc12           0.252

# context switch: different compound, same B-score
Q) Any idea what its B-score is? The compound is Cc1cc(N2C(=O)C(=O)/C(=C(/O)c3ccc(Cl)cc3)C2c2cccc(Br)c2)no1 (stereo not drawn)
A) 0.0445

----------
target: Muscarinic acetylcholine receptor M1 (Rattus norvegicus); assay: antagonists of rat M1 muscarinic receptor (AID 628); conditions: CHO-M1 cells, Fluo-4 calcium, ACh EC80 antagonist mode; at 10 µM; active compounds read low
Out of some 64,000 compounds screened, about 2,200 (3.4%) were called active. Only a selection was taken, and actives are over-represented in it overall.
Reported values of B-score for individual entries

> print(dat)
                                   compound                              assay.target  measured.parameter            result
1  COC(=O)Nc1ccc(S(=O)(=O)N(C)CC(F)(F)C(F)F)cc1  Muscarinic acetylcholine receptor M1 (Rattus norvegicus)             B-score  0.467 (inactive)
2  CCOC(=O)Nc1ccc2c(c1)N(C(=O)CN1CCN3CCCC3C1)c1ccccc1CC2 (centres undefined)  Muscarinic acetylcholine receptor M1 (Rattus norvegicus)             B-score    -4.22 (active)
3  CSc1nnc2c(n1)OC(c1ccsc1)N(C(C)=O)c1ccccc1-2 (centres undefined)  Muscarinic acetylcholine receptor M1 (Rattus norvegicus)             B-score    -8.49 (active)

Q) Any idea what its B-score is? The compound is CCOC(=O)C1CCCN(Cc2nc(N)nc(Nc3ccc(C)cc3)n2)C1 (centres undefined)
A) -0.238 (inactive)

----------
target: Muscarinic acetylcholine receptor M1 (Rattus norvegicus) (UniProt P08482); assay: antagonists of rat M1 muscarinic receptor (AID 628); details: CHO-M1 cells, Fluo-4 calcium, ACh EC80 antagonist mode; at 10 µM; active compounds read low
About 2,200 (3.4%) of roughly 64,000 compounds were called active. What follows is part of a selection rich in actives, with near analogues and random picks from the rest.
B-score strictly less than 0.3 = True. Otherwise False.

> print(dat)
                                   molecule  answer.label
1  O=S(=O)(Nc1ccc2nc(-c3ccco3)[nH]c2c1)c1ccccc1          True
2  COCc1[nH]nc2c1C(C1C=CCCC1)C(C#N)=C(N)O2 (stereo unspecified)         False
3  Cc1cc(C)c2[nH]c(=O)c(C(c3nnnn3Cc3ccc4c(c3)OCO4)N3CCCC3)cc2c1 (stereo unspecified)         False
4  Cc1nc2ccccc2c2oc(C(=O)NCC3CCCO3)cc12 (stereo unspecified)          True
5           c1ccc(-n2ncc(-c3nn[nH]n3)n2)cc1         False

Lab note: next molecule to report on.
Q) Please let me know if COc1ccc(CCNC(=O)CCn2c(=O)oc3ccccc32)cc1OC shows B-score below 0.3.
A) True

----------
target: Muscarinic acetylcholine receptor M1 (Rattus norvegicus); test: antagonists of rat M1 muscarinic receptor (AID 628); conditions: CHO-M1 cells, Fluo-4 calcium, ACh EC80 antagonist mode; at 10 µM; active compounds read low
Screen size: about 64,000 compounds; about 2,200 (3.4%) were called active. For the sample, actives were picked, then their nearest neighbours and some compounds at random.
B-score strictly less than 0.2 = y. Otherwise n.

Example entries and their recorded answers appear below.
> print(dat)
                                   compound  answer.label
1      O=S(=O)(CCc1nc2ccccc2o1)c1ccc(Cl)cc1             y
2  O=C(CSc1nc2ccccc2o1)N1CCN(c2ccc(Cl)cc2)CC1             y
3  CCOC(=O)C(CC)Sc1ncnc2c1nnn2-c1ccc(F)cc1 (centres undefined)             n
4                        CCCCOC(=O)Nc1nccs1             y
5  CCC(c1nnnn1C1CCCC1)N(Cc1cccs1)Cc1cc2cccc(C)c2[nH]c1=O (centres undefined)             n

Q) Please let me know if CCOc1ccccc1C1CC(c2ccccc2)Nc2nc(N)nn21 (centres undefined) shows B-score below 0.2.
A) n

----------
molecular target: Muscarinic acetylcholine receptor M1 (Rattus norvegicus); experiment: antagonists of rat M1 muscarinic receptor (AID 628); conditions: CHO-M1 cells, Fluo-4 calcium, ACh EC80 antagonist mode; at 10 µM; active compounds read low
Screen size: about 64,000 compounds; about 2,200 (3.4%) were called active. Many of the other results were omitted from the sample, so actives are more common in it than they were.
B-score strictly less than -0.4 = yes (1). Otherwise no (0).

> print(dat)
                                   molecule                              assay.target  answer.label
1  COC(=O)C1=C(C)Nc2ncnn2C1c1ccco1 (centres undefined)  Muscarinic acetylcholine receptor M1 (Rattus norvegicus)        no (0)
2  CCCCN(C)C(=O)c1ccc2c(c1)N(CC)C(=O)c1ccccc1S2(=O)=O  Muscarinic acetylcholine receptor M1 (Rattus norvegicus)       yes (1)
3  O=C(c1cn(-c2ccccc2)nc1-c1cccnc1)N1CCCCC1  Muscarinic acetylcholine receptor M1 (Rattus norvegicus)        no (0)
4  c1ccc(-c2nnc3n2NC(c2ccc4c(c2)OCO4)S3)cc1 (centres undefined)  Muscarinic acetylcholine receptor M1 (Rattus norvegicus)        no (0)
5  CS(=O)(=O)N(CC(=O)N1CCOCC1)c1ccc2c3c(cccc13)CC2  Muscarinic acetylcholine receptor M1 (Rattus norvegicus)        no (0)

Lab note: next molecule to report on.
Q) Please let me know if O=C(Nc1cccnc1)c1noc2c1CCCCC2 shows B-score below -0.4.
A) no (0)

----------
biological target: Muscarinic acetylcholine receptor M1 (Rattus norvegicus); assay: antagonists of rat M1 muscarinic receptor (AID 628); conditions: CHO-M1 cells, Fluo-4 calcium, ACh EC80 antagonist mode; at 10 µM; active compounds read low
Hit rate of the full screen: of about 64,000 compounds, about 2,200 (3.4%) were called active. What follows is part of a selection rich in actives, with near analogues and random picks from the rest.
B-score strictly less than 0.3 = Fulfilled. Otherwise Not fulfilled.

Example entries and their recorded answers appear below.
> print(dat)
                                   molecule   answer.label
1         Cc1ccc(Cc2cncc(O)c2)cc1S(=O)(=O)O      Fulfilled
2  CCc1ccccc1N(CC(=O)NCCSCc1ccco1)S(C)(=O)=O      Fulfilled
3  CCOC(=O)c1c(C)[nH]c(C(=O)NCc2ccccc2OC)c1C      Fulfilled
4  Cc1ccc(C)c2[nH]c(=O)c(CCNC(=O)CC(C)C)cc12  Not fulfilled
5     COC(=O)c1sc(NC(=O)c2ccc(OC)cc2OC)nc1C      Fulfilled
6  CC1CN(c2cc(=O)n(Cc3ccc(F)cc3)c(=O)[nH]2)CC(C)O1 (stereo not drawn)      Fulfilled
7            COC(CCN(C)C)(c1ccccc1)c1ccccc1      Fulfilled
8  CCCCN=C(N)/C(C(=O)OCC)=C(\O)c1ccc(OC)cc1      Fulfilled

Q) Please let me know if COc1ccc(OCC(=O)OCCN(C)C)cc1 shows B-score below 0.3.
A) Not fulfilled

Q) Please let me know if COc1cc(OC)c(C(=O)NC2CC(C)(C)NC(C)(C)C2)cc1OC shows B-score below 0.3.
A) Fulfilled
